Reference for the values: patent US9175305B2

- assayedSystem: HPPD SEQ ID NO:23 (Avena sativa, UniProt A0ACD5V6K6, A242W/DEL109-109)
- Sequence (A0ACD5V6K6 entry or part of it DEL109-109/A242W): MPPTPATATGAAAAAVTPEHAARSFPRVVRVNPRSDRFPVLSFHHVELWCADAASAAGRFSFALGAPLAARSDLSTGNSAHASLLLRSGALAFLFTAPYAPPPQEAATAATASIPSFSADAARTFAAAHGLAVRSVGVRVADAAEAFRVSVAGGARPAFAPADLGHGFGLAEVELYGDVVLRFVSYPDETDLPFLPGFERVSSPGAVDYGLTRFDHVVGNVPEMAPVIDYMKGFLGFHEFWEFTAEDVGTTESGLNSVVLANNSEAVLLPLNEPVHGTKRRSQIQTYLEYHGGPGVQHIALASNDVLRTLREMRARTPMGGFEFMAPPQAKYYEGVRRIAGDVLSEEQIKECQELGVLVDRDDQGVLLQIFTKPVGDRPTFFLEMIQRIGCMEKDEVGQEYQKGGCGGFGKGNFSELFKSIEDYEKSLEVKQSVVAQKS
- testProtocol: biochemical
measuredProperty: pKd
One number for each entry, as −log10 of the molar value.

Lookup: Requested read-out: pKd. Entry: CCOc1c(S(C)(=O)=O)ccc(C(=O)C2C(=O)CC(C)CC2=O)c1Cl (stereo not shown) [Structure A]
Found: 9.48

----------
So I've got a bunch of compounds here, and I need their Kd values.
- assayedSystem: HPPD SEQ ID NO:21 (Avena sativa, UniProt A0ACD5V6K6, DEL109-109/I285V)
- Sequence (A0ACD5V6K6 entry or part of it DEL109-109/I285V): as the sequence (A0ACD5V6K6 entry or part of it DEL109-109/A242W) above, with W241A, I284V counted along it
- testProtocol: biochemical
- Assay type: binding
One number for each entry, in nM.

1. CCOc1c(S(C)(=O)=O)ccc(C(=O)C2C(=O)CC(C)CC2=O)c1Cl (centres unmarked) [Structure A] | 0.2

Pending compound:
Lookup: Requested read-out: Kd. Entry: COCCOCc1nc(C(F)(F)F)ccc1C(=O)C1C(=O)C2CCC(C2)C1=O (centres unmarked) [Structure C]
Found: 11.9

----------
- assayedSystem: HPPD SEQ ID NO:14 (Avena sativa, UniProt A0ACD5V6K6, DEL109-109)
- Sequence (A0ACD5V6K6 entry or part of it DEL109-109): as the sequence (A0ACD5V6K6 entry or part of it DEL109-109/A242W) above, with W241A counted along it
- testProtocol: biochemical
- Type: binding
- studyConditions: HPPD SEQ ID NO:14
measuredProperty: Kd/Km ratio
Give bare numbers.

Past entries and their recorded results:
1. CCOc1c(S(C)(=O)=O)ccc(C(=O)C2C(=O)CC(C)CC2=O)c1Cl (stereo not shown) [Structure A] | 0.000036
2. CS(=O)(=O)c1cc(C(F)(F)F)ccc1C(=O)C(C#N)C(=O)C1CC1 (stereo not shown) [Structure D] | 0.00023
3. COCCOCc1nc(C(F)(F)F)ccc1C(=O)C1C(=O)C2CCC(C2)C1=O (stereo not shown) [Structure C] | 0.0017

Pending compound:
Lookup: Requested read-out: Kd/Km ratio. Entry: CS(=O)(=O)c1ccc(C(=O)C2C(=O)CCCC2=O)c(Cl)c1COCC(F)(F)F [E, tembotrione]
Found: 0.000059

----------
- assayedSystem: HPPD SEQ ID NO:25 (Avena sativa, UniProt A0ACD5V6K6, DEL109-109/L359A)
- Sequence (A0ACD5V6K6 entry or part of it DEL109-109/L359A): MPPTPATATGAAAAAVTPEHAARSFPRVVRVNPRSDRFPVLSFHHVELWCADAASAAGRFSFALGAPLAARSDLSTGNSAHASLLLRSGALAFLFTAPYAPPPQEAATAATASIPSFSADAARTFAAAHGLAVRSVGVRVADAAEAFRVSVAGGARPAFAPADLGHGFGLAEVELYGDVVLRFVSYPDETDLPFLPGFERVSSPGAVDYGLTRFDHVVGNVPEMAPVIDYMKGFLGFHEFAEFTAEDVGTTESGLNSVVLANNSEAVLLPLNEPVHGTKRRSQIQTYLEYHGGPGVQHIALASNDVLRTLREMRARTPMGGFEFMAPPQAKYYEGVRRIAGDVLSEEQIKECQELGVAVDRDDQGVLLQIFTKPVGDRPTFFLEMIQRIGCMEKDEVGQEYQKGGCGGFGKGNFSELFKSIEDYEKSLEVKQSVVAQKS
- testProtocol: biochemical
measuredProperty: Kd (µM)
One number for each entry, in µM.

Lookup: Requested read-out: Kd. Entry: COCCOCc1nc(C(F)(F)F)ccc1C(=O)C1C(=O)C2CCC(C2)C1=O (stereo not shown)
Found: 0.023

----------
- assayedSystem: HPPD SEQ ID NO:17 (Avena sativa, UniProt A0ACD5V6K6, DEL109-109/Q298S)
- Sequence (A0ACD5V6K6 entry or part of it DEL109-109/Q298S): as the sequence (A0ACD5V6K6 entry or part of it DEL109-109/A242W) above, with W241A, Q297S counted along it
- testProtocol: biochemical
- Assay type: binding
measuredProperty: pKd
One number for each entry, as −log10 of the molar value.

Lookup: Requested read-out: pKd. Entry: COCCOCc1nc(C(F)(F)F)ccc1C(=O)C1C(=O)C2CCC(C2)C1=O (stereo not shown)
Found: 8.15
